Where do these numbers come from? They come from the supplement of paper PMC9732359.

Exercise: for every item that follows, state its recorded protein stability index.
assay: protein stability index of a GFP-peptide fusion (yeast GPS) (PSI 1-4); higher = more stable; sorted into four equal gates, so the index is relative within each strain; conditions: pdr5∆
Give bare numbers.

Before answering, review these 5 worked examples.
seqString: LQGISTLRPRQYATVSK [RPL34A]
readout: protein stability index
numericResult: 2.75
--
seqString: SVKLDLQDDEDHKFPIR [BRN1]
readout: protein stability index
numericResult: 2.88
--
seqString: VDVAKDINVKDLKASQR [RPT6]
readout: protein stability index
numericResult: 3.13
--
seqString: SKFSKQQAKGAFQKVAA [RPL24A]
readout: protein stability index
numericResult: 2.7
--
seqString: GSVMSASVEIVFHDPDH [SMC3]
readout: protein stability index
numericResult: 2.53

For each listed entry, give its protein stability index.
1. GSTTIEKKNDENSTSNS [YLR335W/NUP2]
2. LYPCYFDINRSHKEGRR [SEC65]
3. LFSSRRLQAKRLKDVEW [RMP1]
4. LIERYYPKLTLDFQTNK [RPS17A]
5. SAEYLQMSLEANVVDIT [YJR042W/NUP85]

Response given:
[3.18, 1.93, 2.79, 3.01, 2.19]

Hello, I would appreciate it if you could give protein stability index for each entry below.
1. MTTEDPDSNHLSSETGI [SRB4]
2. DAFVATAFATEFFVQVL [DLS1]
3. RLILLLNHRNKNQHRAA [RMP1]
4. KESIVLPTVGFDFIKDN [YOR098C/NUP1]
5. QQAQARLQQGRRLPMTM [SNF2]

Response given:
1. 2.85
2. 3.03
3. 1.51
4. 2.65
5. 3.15

Give me protein stability index for each of these sequences, listed below.
1. IVALSSEEINQYVTQIE [PRE6]
2. DSTDNENSGKEMDEKSY [LIN1]

Response given:
1. 2.97
2. 3.26

---

Can you tell me protein stability index for the items I'm about to list?
experiment: protein stability index of a GFP-peptide fusion (yeast GPS) (PSI 1-4); higher = more stable; sorted into four equal gates, so the index is relative within each strain; details: san1∆
Numbers only.

Example entries and their recorded answers appear below.
seqString: ILERAYKKLDIDGKVIQ [SNF2]
numericResult: 3.05
//
seqString: DEEGIFSRFVDQFIRHV [YCG1]
numericResult: 2.99
//
seqString: GASGEERLMSRPFGVAL [PUP2]
numericResult: 2.93
//
seqString: LGSSEAENLLQLKTGLA [YGL172W/NUP49]
numericResult: 2.98

Now take the following sequence into account.
Challenge: Please indicate protein stability index recorded for SFLKVDPDLGLDLMFDE [YJL039C/NUP192]
Response given: 3.04

---

experiment: protein stability index of a GFP-peptide fusion (yeast GPS) (PSI 1-4); higher = more stable; sorted into four equal gates, so the index is relative within each strain; conditions: ubr1∆
Classify by measured protein stability index: true if it is equal to or exceeds 3, false if it is smaller.

seqString: GSGNNNEIESRQLTSLG [SNU114]
assignedCategory: true

Challenge: Threshold query (protein stability index >= 3) on SSVYRLKFAVQVDKVTK [RPL26A]
Response given: false

---

assay: protein stability index of a GFP-peptide fusion (yeast GPS) (PSI 1-4); higher = more stable; sorted into four equal gates, so the index is relative within each strain; conditions: san1∆
Exercise: state measured protein stability index for each of the sequences provided.
Give bare numbers.

Below, each entry is followed by its recorded protein stability index result.
seqString: GTNPLSSDGAYTEQFQH [SSN2]
protein stability index: 2.96
//
seqString: YGEAPTSPGFGVSSPGF [RPO21]
protein stability index: 2.93
//
seqString: ERVMKNKVEENLEGLYL [RPT2]
protein stability index: 3.07

Challenge: Quote protein stability index reported for LNDMNTEISGLKNVNKR [SMC3] please.
Response given: 3.06
